# maps each entry to its CC50 at 120 h
measurement-protocol: Cytotoxicity against human THP1 cells assessed as growth inhibition after 120 hrs by Alamar blue dye based fluorometric analysis
Assay type: cell-based
applied-conditions: THP-1 cells
All answers are understood in µM, so give the number only.

Before answering, review these 4 worked examples.
>>> val("CCCCCCCCCCCCCCCCOP(=O)([O-])OCC[N+](C)(C)C")
60.7
>>> val("CC[C@H](O[C@H]1C[C@@](C)(O)[C@H](O[C@H]2CC[C@H](OC(=O)[C@H](C)[C@H](O)c3ccc4c(c3)C(=O)C=C(C)C4=O)[C@@H](C)O2)[C@H](C)O1)[C@H](C)[C@H](O)[C@@H](C)[C@H](O)[C@H](C)[C@H]1OC(=O)/C=C/[C@H](C)[C@H](O)C[C@H](O)CCC[C@@H](O)CC[C@@H](C)[C@H](O)C(=O)[C@]2(O)O[C@H](C[C@@H](O)C[C@H](O)C[C@H](O)CCC[C@H](O)[C@@H]3O[C@H]3[C@@H]1C)C[C@H](O)[C@H]2O")
6.07
>>> val("COc1cccc2c1C(=O)c1c(O)c3c(c(O)c1C2=O)C[C@@](O)(C(=O)CO)C[C@@H]3O[C@H]1C[C@H](N)[C@H](O)[C@H](C)O1")
0.58
>>> val("CC[C@H](O[C@H]1C[C@@](C)(O)[C@H](O[C@H]2CC[C@H](OC(=O)[C@H](C)[C@H](O)c3ccc4c(c3)C(=O)C=C(C)C4=O)[C@@H](C)O2)[C@H](C)O1)[C@H](C)[C@H](O)[C@@H](C)[C@H](O)[C@H](C)[C@H]1OC(=O)/C=C/[C@H](C)[C@H](O)C[C@H](O)CCC[C@@H](O)CC[C@@H](C)[C@H](O)C(=O)[C@@]2(O)C[C@@H](O)C[C@@H](C[C@@H](O)C[C@H](O)C[C@H](O)CCC[C@H](O)[C@@H]3O[C@H]3[C@@H]1C)O2")
6.4

Consider the record given below.
Entry CC[C@H](O[C@H]1C[C@@](C)(O)[C@H](O[C@H]2CC[C@H](OC(=O)[C@H](C)[C@H](O)c3ccc4c(c3)C(=O)C=C(C)C4=O)[C@@H](C)O2)[C@H](C)O1)[C@H](C)[C@H](O)[C@@H](C)[C@H](O)[C@H](C)[C@H]1OC(=O)/C=C/[C@H](C)[C@H](O)C[C@H](O)CCC[C@@H](O)CC[C@@H](C)[C@H](O)C(=O)[C@@]2(O)C[C@@H](O)C[C@@H](C[C@@H](O)C[C@H](O)C[C@H](O)CCC[C@H](O)/C=C/[C@@H]1C)O2 has what CC50 at 120 h?
11.5
